src = patent US20220056134A1

target: T1, MET-R Fc (R&D Systems, catalog number 8614-MT) (UniProt P08581 25-932); experiment: SPR (BIAcore T200), Fab captured on anti-Fab chip, MET-R Fc as analyte, 25 C, 1:1 model
T1 construct: Bought reagent used as SPR analyte; not shown: Fc part of the bought fusion protein
T1 sequence (P08581 25-932 limits assumed): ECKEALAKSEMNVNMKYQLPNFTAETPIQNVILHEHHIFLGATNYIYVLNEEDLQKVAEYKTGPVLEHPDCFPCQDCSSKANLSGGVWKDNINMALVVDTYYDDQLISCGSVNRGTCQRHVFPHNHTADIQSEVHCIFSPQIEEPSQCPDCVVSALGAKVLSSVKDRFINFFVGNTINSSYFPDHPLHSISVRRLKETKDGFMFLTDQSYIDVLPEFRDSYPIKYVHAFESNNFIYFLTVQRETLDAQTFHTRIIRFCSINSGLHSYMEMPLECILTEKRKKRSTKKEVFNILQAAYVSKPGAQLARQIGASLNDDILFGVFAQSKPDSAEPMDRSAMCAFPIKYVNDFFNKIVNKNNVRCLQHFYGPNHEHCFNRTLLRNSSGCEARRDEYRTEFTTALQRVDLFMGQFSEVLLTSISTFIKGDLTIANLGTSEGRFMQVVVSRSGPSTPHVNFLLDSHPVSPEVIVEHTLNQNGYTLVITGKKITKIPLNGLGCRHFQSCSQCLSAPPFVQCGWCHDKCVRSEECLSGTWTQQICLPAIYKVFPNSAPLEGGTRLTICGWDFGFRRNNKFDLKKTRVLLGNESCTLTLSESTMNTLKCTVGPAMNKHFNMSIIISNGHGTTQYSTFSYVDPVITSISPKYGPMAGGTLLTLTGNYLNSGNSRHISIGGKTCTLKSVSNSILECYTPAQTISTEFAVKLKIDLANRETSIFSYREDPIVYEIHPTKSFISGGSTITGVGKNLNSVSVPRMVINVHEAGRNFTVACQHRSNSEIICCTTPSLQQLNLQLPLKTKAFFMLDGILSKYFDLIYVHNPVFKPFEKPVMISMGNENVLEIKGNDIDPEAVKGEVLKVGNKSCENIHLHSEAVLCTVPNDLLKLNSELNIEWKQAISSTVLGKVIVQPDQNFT
measured quantity: koff (s⁻¹)
Answer with a number only, understood to be in s⁻¹.

Use the examples below as a reference point.
binder	unit tag	koff
anti-MET Fab variant CDR L3 Y92A (Fab, V domains shown, Fab; variable domains only; Kabat numbering) VH: EVQLVESGGGLVQPGGSLRLSCAASGYTFTSYWLHWVRQAPGKGLEWVGMIDPSNSDTRFNPNFKDRFTISADTSKNTAYLQMNSLRAEDTAVYYCATYRSYVTPLDYWGQGTLVTVSS VL: DIQMTQSPSSLSASVGDRVTITCKSSQSLLYTSSQKNYLAWYQQKPGKAPKLLIYWASTRESGVPSRFSGSGSGTDFTLTISSLQPEDFATYYCQQYAAYPWTFGQGTKVEIK	s⁻¹	0.00019
anti-MET Fab variant CDR L3 Y94A (Fab, V domains shown, Fab; variable domains only; Kabat numbering) VH: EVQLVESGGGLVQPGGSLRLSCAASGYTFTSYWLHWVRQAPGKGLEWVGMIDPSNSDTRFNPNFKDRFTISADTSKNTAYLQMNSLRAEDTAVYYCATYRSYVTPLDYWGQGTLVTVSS VL: DIQMTQSPSSLSASVGDRVTITCKSSQSLLYTSSQKNYLAWYQQKPGKAPKLLIYWASTRESGVPSRFSGSGSGTDFTLTISSLQPEDFATYYCQQYYAAPWTFGQGTKVEIK	s⁻¹	0.00065
anti-MET Fab variant CDR L3 W96A (Fab, V domains shown, Fab; variable domains only; Kabat numbering) VH: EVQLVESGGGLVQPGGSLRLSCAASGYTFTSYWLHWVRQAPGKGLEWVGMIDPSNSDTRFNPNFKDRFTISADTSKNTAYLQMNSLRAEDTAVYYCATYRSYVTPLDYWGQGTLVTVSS VL: DIQMTQSPSSLSASVGDRVTITCKSSQSLLYTSSQKNYLAWYQQKPGKAPKLLIYWASTRESGVPSRFSGSGSGTDFTLTISSLQPEDFATYYCQQYYAYPATFGQGTKVEIK	s⁻¹	0.00017

Lab book: koff of anti-MET Fab variant CDR L3 Y91A (Fab, V domains shown, Fab; variable domains only) VH: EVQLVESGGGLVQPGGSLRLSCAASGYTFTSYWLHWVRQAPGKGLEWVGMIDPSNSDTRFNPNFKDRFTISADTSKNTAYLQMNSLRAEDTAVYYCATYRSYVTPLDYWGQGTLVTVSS VL: DIQMTQSPSSLSASVGDRVTITCKSSQSLLYTSSQKNYLAWYQQKPGKAPKLLIYWASTRESGVPSRFSGSGSGTDFTLTISSLQPEDFATYYCQQAYAYPWTFGQGTKVEIK noted as 6e-05
